# MEASURED_ON: ScLsb1
# PROTOCOL_NOTES: SPOT peptide array binding signal intensity (averaged, normalized) (arbitrary units (background-subtracted, floor 0; scale differs between SH3 domains)); higher = stronger binding of the SH3 domain to the peptide
For each of the binders below, state its SPOT peptide array binding signal intensity.

The following binders have reported results that may help.
>>> measured_result("RLSRLLLSLPPESFT")
1.5
>>> measured_result("IAPIPMPKPNPTHIS")
"≤ 0"
>>> measured_result("RSVKRPRRAPRPVVS")
156
>>> measured_result("LKRITSPPLPPRADS")
661
>>> measured_result("PPLPRAPPVPPATFE")
1

For each entry beneath this line, provide reported SPOT peptide array binding signal intensity.
1. YLTRPLPSTPNEDSR
2. KDKKTKPTPPPKPSH

a:
1. 20
2. ≤ 0
